The reported numbers originate from ChEMBL document CHEMBL1649393.

tested on: Staphylococcus aureus; test: Antimicrobial activity against Staphylococcus aureus ATCC 25923 assessed as >99.9 % reduction in CFU after 18 hrs by broth microdilution method; type: functional; details: ATCC 25923, 18 h
Documented MBC across a set of compounds
Answer format: numeric, µg/mL implied, no suffix.

Reference set, count: 6
Fc1ccc(-n2c(-c3cccc(Cl)c3)nn(CN3CCCC3)c2=S)cc1 250
S=c1n(CN2CCCC2)nc(-c2cccc(Cl)c2)n1-c1ccc(Cl)cc1 125
S=c1n(CN2CCCC2)nc(-c2cccc(Cl)c2)n1-c1ccc(I)cc1 1000
S=c1n(CN2CCCC2)nc(-c2cccc(Cl)c2)n1-c1ccccc1 500
Fc1ccc(F)c(-n2c(-c3cccc(Cl)c3)nn(CN3CCCC3)c2=S)c1 500
Fc1cccc(F)c1-n1c(-c2cccc(Cl)c2)nn(CN2CCCC2)c1=S 500

Next:
Ask: Please look up its MBC: COc1ccc(-n2c(-c3cccc(Cl)c3)nn(CN3CCCC3)c2=S)cc1
Result: 500

* * *

test system: Staphylococcus aureus; test: Antimicrobial activity against Staphylococcus aureus ATCC 6538 assessed as >99.9 % reduction in CFU after 18 hrs by broth microdilution method; type: functional; conditions: ATCC 6538, 18 h
Documented MBC across a set of compounds
Answer format: numeric, µg/mL implied, no suffix.

Fc1ccc(-n2c(-c3cccc(Cl)c3)nn(CN3CCCC3)c2=S)cc1 250

Next:
Ask: Please look up its MBC: S=c1n(CN2CCCC2)nc(-c2cccc(Cl)c2)n1-c1ccccc1
Result: 500

* * *

system: Staphylococcus aureus; assay: Antimicrobial activity against Staphylococcus aureus ATCC 6538 assessed as >99.9 % reduction in CFU after 18 hrs by broth microdilution method; type: functional; details: ATCC 6538, 18 h
assay_readout: MBC (µg/mL)
Answer format: numeric, µg/mL implied, no suffix.

Reference set, count: 3
Fc1cccc(F)c1-n1c(-c2cccc(Cl)c2)nn(CN2CCCC2)c1=S 500
COc1ccc(-n2c(-c3cccc(Cl)c3)nn(CN3CCCC3)c2=S)cc1 500
Fc1ccc(F)c(-n2c(-c3cccc(Cl)c3)nn(CN3CCCC3)c2=S)c1 500

Next:
Ask: Please look up its MBC: S=c1n(CN2CCCC2)nc(-c2cccc(Cl)c2)n1-c1ccc(I)cc1
Result: 1000
